- measuredOn: Neu5Ac(a2-3)Gal(b1-3)]Neu5Ac(a2-3)Gal(b1-4)]GlcNAc
- testName: glycan array binding signal (z-score within array); higher = stronger binding
- assayConditions: glycan notation: IUPAC condensed, linker removed
Only a selection was taken, and the strongest signals are over-represented in it overall.
Provide the recorded glycan array binding signal (z-score) for the entries that follow.
Answers are plain numbers.

Reference set, count: 3
>>> quantitativeresult("Epa19 (Candida glabrata) (protein) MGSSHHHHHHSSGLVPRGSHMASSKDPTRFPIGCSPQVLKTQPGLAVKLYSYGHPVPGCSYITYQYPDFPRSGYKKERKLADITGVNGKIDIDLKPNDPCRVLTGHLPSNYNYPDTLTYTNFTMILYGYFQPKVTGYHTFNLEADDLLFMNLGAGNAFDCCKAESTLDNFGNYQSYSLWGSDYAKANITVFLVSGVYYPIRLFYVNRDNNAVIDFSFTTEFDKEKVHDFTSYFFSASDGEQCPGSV")
1.09
>>> quantitativeresult("Aap arpt (Staphylococcus epidermidis) (protein) NNEAPQMSSTLQAEEGSNAEAPQSEPTKAEEGGNAEAAQSEPTKAEEGGNAEAPQSEPTKAEEGGNAEAAQSEPTKTEEGSNVKAAQSEPTKAEEGSNAEAPQSEPTKTEEGSNAKAAQSEPTKAEEGGNAEAAQSEPTKTEEGSNAEAPQSEPTKAEEGGYAEAPQSEPTKTEEGGNAEAPNVPTIKA")
2.21
>>> quantitativeresult("F17-L (Escherichia coli) (protein) GPDDYVPSQIAVNTSTLPGVVIGPADAHTYPRVIGELAGTSNQYVFNGGAIALMRGKFTPALPKIGSITYTFHQGNSRDSSDFDIYDIGVSGLGIIIGMAGYWPATPLVPINSSGIYIDPVGANTNPNTYNGATASFGARLFVAFVATGRLPNGYITIPTRQLGTILLEAKRTSLNNKGLTAPVMLNGGRIQVQSQTHHHHHH")
0.01

Now, please, on to the next binder.
Query :: Find the recorded glycan array binding signal (z-score) belonging to AFCNVH (Aspergillus fumigatus) (protein) MSLRGFHTTCDTIVLKDKHILSSRCKRPDGTYSFSEIDLNDCLGNNNGKFVWGGESFVDSASQVNLALEGGEGRPMLHAQLNDWHGSVQSASVNLGECIQNEAGGLEYMHC and report it.
Result :: -0.242
